# METHOD_SUMMARY: Plasma exposure of LD and CD after SC infusion, oral IR tablet, and SC + oral coadministration (crossover, Example 1)
# Format: in vivo, healthy subjects (human)
# CONDITIONS: human, in vivo; plasma LD; formulation A 153.6/19.2 LD/CD SC infusion over 8 h + oral IR LD/CD 100/25 mg tablet at 4 h; individual subjects; read-out: 4. Treatment C AUC (0-8) [Observed]

| COMPOUND | AUC(0-t) / ng·h/mL |
| --- | --- |
| N[C@@H](Cc1ccc(O)c(O)c1)C(=O)O [LD, L-3,4-dihydroxyphenylalanine] | 4770 |

---

# METHOD_SUMMARY: Plasma exposure of LD and CD after SC infusion, oral IR tablet, and SC + oral coadministration (crossover, Example 1)
# Assay type: in vivo, healthy subjects (human)
# CONDITIONS: human, in vivo; plasma CD; oral IR tablet 100/25 mg LD/CD at 0 h; individual subjects; read-out: 2. Treatment B AUC (0-4)

| COMPOUND | AUC(0-t), ng·h/mL |
| --- | --- |
| C[C@@](Cc1ccc(O)c(O)c1)(NN)C(=O)O [CD, carbidopa] | 322 |

---

# METHOD_SUMMARY: Plasma exposure of LD and CD after SC infusion, oral IR tablet, and SC + oral coadministration (crossover, Example 1)
# Type: in vivo, healthy subjects (human)
# CONDITIONS: human; plasma LD; formulation A 180/22.5 mg LD/CD SC infusion over 8 h; AUC multiplied by 0.853 to equal SC dose of Treatment C; individual subjects; read-out: 1. Treatment A AUC (0-8) × 0.853*

| COMPOUND | ENDPOINT_UNIT | AUC(0-t) |
| --- | --- | --- |
| N[C@@H](Cc1ccc(O)c(O)c1)C(=O)O [LD, L-3,4-dihydroxyphenylalanine] | ng·h/mL | 3090 |

---

# METHOD_SUMMARY: in vivo
# CONDITIONS: female, Landrace x large White, pig, in vivo, sc, 600 mg, SC treatment AUC (G1) Actual
ASSAY_METRIC: AUC (ng·h/mL)

| COMPOUND | ASSAY_METRIC | REPORTED_VALUE |
| --- | --- | --- |
| N[C@@H](Cc1ccc(O)c(O)c1)C(=O)O [LD, L-3,4-dihydroxyphenylalanine] | AUC | 17600 |

---

# METHOD_SUMMARY: in vivo
# CONDITIONS: female, pig, in vivo, sc, 600 mg, SC treatment AUC (G1) Actual, plasma LD AUC; pigs; SC LD-Tyr/CD 600/26 mg over 8 hrs only; individual animals

| COMPOUND | AUC |
| --- | --- |
| N[C@@H](Cc1ccc(O)c(O)c1)C(=O)O [LD, L-3,4-dihydroxyphenylalanine] | 18000 ng·h/mL |
